- targetDesc: T1, HLA-A*0201 on the CEM.T2 cell line (T2) (human)
- T1 construct: whole, on cells
- protocolDescription: T2 cell HLA-A*0201 stabilization, 100 µM peptide, flow cytometry; % of HBV positive control
Each record is given T if its reported CEM.T2 % Binding is strictly below 30%. Records at or above 30% are given F.

binder	category
AALLFCLLV (Synthetic nonapeptide of human nectin4; the range counts on nectin4) [Nectin4 peptide 357 (AALLFCLLV)]	T
RSYSTLTTV (Synthetic nonapeptide of human nectin4; the range counts on nectin4) [Nectin4 peptide 443 (RSYSTLTTV)]	F

Please examine the following record next.
Enquiry: Does the reported CEM.T2 % Binding of DQNLWHIGR (Synthetic nonapeptide of human nectin4; the range counts on nectin4) [Nectin4 peptide 255 (DQNLWHIGR)] stay below 30%?
Return: T

Source listed as patent US20140178394A1.
